System: MDA-MB-435
Experiment: NCI tumour cell line growth inhibition, 48 h
Activity calls are given as the source filed them. No stated cut-off is given here; in the data, active = GI50 up to about 1.1 µM and inactive = higher.
Just give me one of these, please: True (active), False (inactive)

// below: answered compounds
compound: O=C1c2cc(I)ccc2N2CCN=C2N1Cc1ccccc1
experimental-system: MDA-MB-435
cat: False
//
compound: O=[N+]([O-])C(Cl)=C/C(=C(\Cl)SCc1ccccc1)[N+](=O)[O-]
experimental-system: MDA-MB-435
cat: False
//
compound: C=CCc1cccc2cc(C(=O)Nc3ccccn3)c(=N)oc12
experimental-system: MDA-MB-435
cat: False
//
compound: CSC(SC)=C1CC(=O)Nc2ccccc2C1=O
experimental-system: MDA-MB-435
cat: False

Qu. Assay outcome for COC(=O)/C=C(\C(=O)OC)C1C(=O)Oc2c(C)c(=O)c3ccccc3n21 (stereo not given) : what was it?
Ans. False

Qu. Assay outcome for "Cc1cc(-c2nc3cc(F)c(F)cc3s2)ccc1N" : what was it?
Ans. False

Qu. Assay outcome for COc1ccccc1NC1Oc2cc3c(cc2C(c2cc(OC)c(OC)c(OC)c2)C1C)OCO3 (stereo not given) : what was it?
Ans. True

Qu. Assay outcome for CCOC(=O)CCC(C(=O)OCC)n1nnc2ccc(Nc3c(C)[n+]([O-])c4cc(F)c(OCC)cc4[n+]3[O-])cc21 (stereo not given) : what was it?
Ans. False

Qu. Assay outcome for "O=c1[nH]/c(=C/c2ccc3c(c2)OCO3)c(=O)[nH]/c1=C/c1ccc2c(c1)OCO2" : what was it?
Ans. False

Qu. Assay outcome for "C[n+]1c2ccccc2c(C(=O)Nc2ccc(S(=O)(=O)N=C(N)N)cc2)c2ccccc21" : what was it?
Ans. False

* * *

Would you mind telling me the reported GI50 of each entry?
Tested on: U-251
Test: NCI tumour cell line growth inhibition, 48 h
Activity calls are given as the source filed them. Rule as the data show it: active = GI50 up to about 1.1 µM and inactive = higher.

molecule: CCNC(=O)Cc1nc2c(N)ncnc2n1C1OC(CO)C(O)C1O (stereo unspecified)
measure-name: GI50
assay-value: > 100 µM (inactive)
--
molecule: Cc1nc(=O)[nH]c2c1C(=O)N(C(C)C)C(NC(C)C)S2 (stereo unspecified)
measure-name: GI50
assay-value: > 100 µM (inactive)
--
molecule: CCOC(=O)C1(C(=O)OCC)COS(=O)OC1
measure-name: GI50
assay-value: > 100 µM (inactive)
--
molecule: Cc1c(-c2ccccc2)c(C#N)c2nnn(C)c(=O)n12
measure-name: GI50
assay-value: > 100 µM (inactive)
--
molecule: O=C1Cc2cc3ccccc3nc2-c2ccccc2N1
measure-name: GI50
assay-value: 60 µM (inactive)

Qu. Request - read-out GI50 | tested on U-251 | molecule "Oc1ccc(/N=C/c2ccc(/C=N/c3ccc(O)cc3)cc2)cc1"
Ans. 14.5 µM (inactive)

* * *

System: K562
Experiment: NCI tumour cell line growth inhibition, 48 h
Activity calls are given as the source filed them. Rule as the data show it: active = GI50 up to about 1.1 µM and inactive = higher.
Just give me one of these, please: active, inactive

molecule: Cc1c(-c2ccccc2)[nH]c2ccc(Cl)cc2c1=O
cat: inactive
--
molecule: O=C1CCC2(CC1CC(Sc1ccccc1)Sc1ccccc1)OCCO2 (configuration not stated)
cat: inactive
--
molecule: CCc1nnc(-n2c(C)nc3cc(Cl)ccc3c2=O)s1
cat: inactive

Now let's try a different one.
Qu. Assay outcome for CCOC(=O)C(C)Sc1nnc(COc2ccccc2OC)n1-c1ccccc1 (configuration not stated) : what was it?
Ans. inactive

* * *

Tested on: CAKI-1
Experiment: NCI tumour cell line growth inhibition, 48 h
Calls of active or inactive are those of the source. Cut-off read from the data, not from the text of the source: active = GI50 up to about 1.1 µM and inactive = higher.
measure-name: GI50

See these solved cases before continuing.
molecule: CN(C)c1ccc(/C=N/n2c(-c3ccccc3)nc3ccccc3c2=O)cc1
GI50: 29.7 µM (inactive)
--
molecule: CCc1cc(CCC(=O)Nc2c(C)cccc2C)n[nH]1
GI50: > 100 µM (inactive)
--
molecule: CCOC(=O)/C(=C/c1ccccn1)C(=O)c1ccccc1
GI50: 14.5 µM (inactive)
--
molecule: CN1c2ccccc2C2c3c(O)ccc(O)c3C=C([N+](=O)[O-])C21 (stereo not drawn)
GI50: 2.13 µM (inactive)
--
molecule: O=C1CC(c2ccccc2)NCN1 (stereo not drawn)
GI50: > 100 µM (inactive)
--
molecule: Cc1cc(CS(=O)(=O)/C=C/c2ccccc2[N+](=O)[O-])c(CS(=O)(=O)/C=C/c2ccccc2[N+](=O)[O-])cc1C
GI50: 35.7 µM (inactive)

Batch request: GI50 per item, same order as input.
1. CCN(CC)CCCC(C)Nc1c2cc(OC)cc(C)c2nc2c(C)c(Cl)ccc12 (stereo not drawn)
2. O=C1OC(CC(=O)c2ccc(Cl)c(Cl)c2)C(Cl)=C1Cl (stereo not drawn)
3. CCOC(OCC)(OCC)C(Br)CC (stereo not drawn)
4. CC(=O)Nc1c2sscc-2n(C)c1=O
5. CC(NC(=O)C(C)C(=O)NCc1ccc(C(F)(F)F)cc1)C(N)=O (stereo not drawn)
6. CC1=NOC(C)(O)/C1=N/O (stereo not drawn)

Ans.
1: 1.92 µM (inactive); 2: > 100 µM (inactive); 3: > 100 µM (inactive); 4: 1.89 µM (inactive); 5: > 100 µM (inactive); 6: > 100 µM (inactive)

* * *

Tested on: A549
Assay: NCI tumour cell line growth inhibition, 48 h
Active and inactive are the calls of the source. Cut-off read from the data, not from the text of the source: active = GI50 up to about 1.1 µM and inactive = higher.
Would you mind telling me the reported GI50 of each entry?

See these solved cases before continuing.
compound: CC1=C2C(O)C(C(C)CO)C(O)CC2(C)C(O)CC1 (stereo unspecified)
GI50: > 100 µM (inactive)

compound: COc1cc(C2c3cc4c(cc3OC(NNc3ccccc3)C2C)OCO4)cc(OC)c1O (stereo unspecified)
GI50: 1.41 µM (inactive)

compound: CCOC(=O)C1CC(O)C(=O)N1C (stereo unspecified)
GI50: > 100 µM (inactive)

compound: COC(=O)[C@@]12C(=O)C=CC(=O)C1C1C(=CC2C)OC2OC3(CCCCC3)OC21 (stereo partly specified)
GI50: 19.3 µM (inactive)

compound: Cc1nc2sccn2c1/C=C1/C(=O)Nc2cccc(Cl)c21
GI50: > 100 µM (inactive)

Batch request: GI50 per item, same order as input.
1. COc1ccc2c3c([nH]c2c1[N+](=O)[O-])C(C)N(C)CC3 (stereo unspecified)
2. O=[N+]([O-])c1cc2c(c([N+](=O)[O-])c1)NCc1ccccc1O2
3. CN(C)C(=O)c1nnsc1NN=O
4. CC1=NC(=Cc2ccccc2O)C(=O)N1n1c(-c2ccccc2)nc2ccccc2c1=O
5. COc1cc2cc(C(=O)Nc3cc4n(n3)-c3ccccc3C4)[nH]c2c(OC)c1OC
6. Cc1ccc([N+](=O)[O-])cc1S(=O)(=O)Nc1ccc(C2=NN(C(=O)c3ccccc3)C(c3cccs3)C2)cc1 (stereo unspecified)

Ans.
> 100 µM (inactive)
> 100 µM (inactive)
> 100 µM (inactive)
35.1 µM (inactive)
1.81 µM (inactive)
19.5 µM (inactive)

* * *

Test system: UACC-62
Test: NCI tumour cell line growth inhibition, 48 h
Calls of active or inactive are those of the source. Rule as the data show it: active = GI50 up to about 1.1 µM and inactive = higher.
measure-name: GI50

molecule: CC(=O)Oc1c(C)c(-c2ccccc2)c(C)c(-c2ccccc2)c1C(=S)c1ccccc1
GI50: > 100 µM (inactive)
//
molecule: CC(NC(=O)NC(C)(C)C)NC(=O)C(N)CC(=O)O (stereo not given)
GI50: 14.4 µM (inactive)
//
molecule: CCOC(OCC)(OCC)C(Br)CC (stereo not given)
GI50: > 100 µM (inactive)
//
molecule: CCC1C2Cc3ccc(O)cc3C1(CC)CCN2C (stereo not given)
GI50: > 100 µM (inactive)
//
molecule: O=C1CSC2(CC(/C=C/c3ccccc3Br)=NN2c2cccc(S(=O)(=O)O)c2)N1c1nc2ccccc2s1 (stereo not given)
GI50: 51.5 µM (inactive)

Batch request: GI50 per item, same order as input.
1. COC(=O)C1Cc2c([nH]c3ccccc23)-c2[nH]c3ccccc3c2CC(NC(C)=O)C(=O)NCC(=O)NCC(=O)N1 (stereo not given)
2. C=CCc1cccc2cc(C(=O)Nc3ccccn3)c(=N)oc12
3. O=C(CCc1cc(O)cc(O)c1)NCCc1cc(O)cc(O)c1
4. COc1nc(NC2OCC(OC(C)=O)C(OC(C)=O)C2OC(C)=O)c(-c2csc(N)n2)c(=O)n1C (stereo not given)
5. Oc1ccc(/N=C/c2ccc(/C=N/c3ccc(O)cc3)cc2)cc1

Ans.
["> 100 µM (inactive)", "> 100 µM (inactive)", "> 100 µM (inactive)", "> 100 µM (inactive)", "12.6 µM (inactive)"]

* * *

Tested on: BT-549
Test: NCI tumour cell line growth inhibition, 48 h
The source made the active and inactive calls. Cut-off read from the data, not from the text of the source: active = GI50 up to about 1.1 µM and inactive = higher.
Just give me one of these, please: active, inactive

compound: N#Cc1ccccc1NC(=O)C(O)C(O)C(O)C(O)C=O (stereo not drawn)
cat: inactive

Qu. Assay outcome for CCOC(=O)CCC(C(=O)OCC)n1nnc2ccc(Nc3c(C)[n+]([O-])c4cc(F)c(OCC)cc4[n+]3[O-])cc21 (stereo not drawn) : what was it?
Ans. inactive

Qu. Assay outcome for CCOC(=O)CC1CCN(C(=O)c2ccccc2)C2Cc3c([nH]c4ccccc34)C12C[N+](=O)[O-] (stereo not drawn) : what was it?
Ans. inactive

Qu. Assay outcome for "O=C1C(c2c(O)[nH]c3ccccc23)=Nc2ccc(Br)cc21" : what was it?
Ans. inactive

Qu. Assay outcome for CN1c2ccccc2C2c3c(O)ccc(O)c3C=C([N+](=O)[O-])C21 (stereo not drawn) : what was it?
Ans. inactive

Qu. Assay outcome for COc1ccc(C2=NNC(c3cc4cc(Br)ccc4nc3Cl)C2)cc1 (stereo not drawn) : what was it?
Ans. inactive

Qu. Assay outcome for "COC(=O)c1ccccc1NCc1cc(O)ccc1O" : what was it?
Ans. inactive

Qu. Assay outcome for "N=C(N)N/N=C(\c1ccc(Cl)cc1)C1CC1" : what was it?
Ans. inactive

Qu. Assay outcome for CC(=O)O[C@H]1CC[C@H]2[C@@H]3CCC4C(C)=NNC(=O)C4[C@H]3CC[C@]12C (stereo partly drawn) : what was it?
Ans. inactive

Qu. Assay outcome for "COC1=CC(=O)C2=C(C1=O)[C@H]1CC[C@]3(C)[C@@H](O)CC[C@H]3[C@@H]1CC2" : what was it?
Ans. inactive

Qu. Assay outcome for "C=CCN1C[C@H](C)N([C@H](c2ccc(C(=O)NC(CC)CC)cc2)c2cccc(OC)c2)C[C@H]1C" : what was it?
Ans. inactive

Qu. Assay outcome for CC1(c2ccc(Cl)s2)CC(c2ccc(Cl)s2)=C(C#N)C(=C(C#N)C#N)N1 (stereo not drawn) : what was it?
Ans. inactive

Qu. Assay outcome for C/C=C\C(CC(=O)NCCC1CN(S(=O)(=O)C(F)(F)F)c2ccccc21)CC(=O)OC (stereo not drawn) : what was it?
Ans. inactive

Qu. Assay outcome for "CC(=O)Oc1ccc(C)c2c1[C@H]1CC[C@]3(C)[C@@H](OC(C)=O)CC[C@H]3[C@@H]1CC2" : what was it?
Ans. inactive

Qu. Assay outcome for "CC(C)=CCC[C@@H](C)C1=C(O)C(=O)C(C)=C(Nc2ccccc2F)C1=O" : what was it?
Ans. inactive
